EXPERIMENTAL TARGET: Cytochrome P450 2E1 (Homo sapiens, UniProt P05181); further: in other assays of this panel Not Active means under 50% inhibition at 10 µM
Sequence (P05181 whole entry): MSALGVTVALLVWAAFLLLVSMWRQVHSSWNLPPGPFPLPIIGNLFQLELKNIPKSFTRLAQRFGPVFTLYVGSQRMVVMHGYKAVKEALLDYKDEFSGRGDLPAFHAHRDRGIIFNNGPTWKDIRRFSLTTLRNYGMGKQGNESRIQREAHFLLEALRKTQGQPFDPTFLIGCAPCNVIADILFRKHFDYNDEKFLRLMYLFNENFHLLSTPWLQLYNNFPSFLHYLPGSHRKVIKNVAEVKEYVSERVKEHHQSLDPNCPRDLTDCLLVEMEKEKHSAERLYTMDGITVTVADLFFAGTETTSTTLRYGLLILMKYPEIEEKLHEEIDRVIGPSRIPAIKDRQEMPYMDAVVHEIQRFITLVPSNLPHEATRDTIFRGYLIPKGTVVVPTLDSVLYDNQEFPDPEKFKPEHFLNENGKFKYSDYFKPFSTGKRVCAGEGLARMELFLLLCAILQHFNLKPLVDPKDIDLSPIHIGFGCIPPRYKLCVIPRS
TEST CONDITIONS: bti-tn-5b1-4
REPORTED METRIC: IC50

These solved cases illustrate the format of a correct answer.
- C[C@]12CC[C@@H]3c4ccc(O)cc4CC[C@H]3[C@@H]1C[C@@H](O)[C@@H]2O: Not Active
- C#C[C@]1(O)CC[C@H]2[C@@H]3CCC4=CC(=O)CC[C@]4(C)[C@H]3CC[C@@]21C: Not Active
- O=c1[nH]c(=O)n(C2CCCO2)cc1F (centres undefined): Not Active
- CC(C)NCC(O)c1ccccc1Cl (centres undefined): Not Active
- C[N+](C)(C)CCOC(=O)CCC(=O)OCC[N+](C)(C)C.[Cl-].[Cl-] [SUCCINYLCHOLINE CHLORIDE]: Not Active
- COc1ccccc1N: Not Active

Prompt: Query (compound): NC(=O)c1cccc(N)c1 [3-AMINOBENZAMIDE] ; field requested: IC50
Response: Not Active

Prompt: Query (compound): CCc1ccc(CCOc2ccc(CC3SC(=O)NC3=O)cc2)nc1 (centres undefined) ; field requested: IC50
Response: Not Active

Prompt: Query (compound): CN(C)C(=O)C(CCN1CCC(O)(c2ccc(Cl)cc2)CC1)(c1ccccc1)c1ccccc1 [LOPERAMIDE] ; field requested: IC50
Response: Not Active

Prompt: Query (compound): CN1CCCC(CN2c3ccccc3Sc3ccccc32)C1 (centres undefined) ; field requested: IC50
Response: Not Active

Prompt: Query (compound): CCn1cc(C(=O)O)c(=O)c2cc(F)c(N3CCNC(C)C3)c(F)c21 (centres undefined) ; field requested: IC50
Response: Not Active

Prompt: Query (compound): "CN1C[C@@H]2C[C@H]1CN2c1cc2c(cc1F)c(=O)c(C(=O)O)cn2C1CC1" ; field requested: IC50
Response: Not Active
